Data origin: patent US20170340735A1

Biological target: T1, human TIGIT on the cell surface (human, UniProt Q495A1 22-244)
T1 sequence: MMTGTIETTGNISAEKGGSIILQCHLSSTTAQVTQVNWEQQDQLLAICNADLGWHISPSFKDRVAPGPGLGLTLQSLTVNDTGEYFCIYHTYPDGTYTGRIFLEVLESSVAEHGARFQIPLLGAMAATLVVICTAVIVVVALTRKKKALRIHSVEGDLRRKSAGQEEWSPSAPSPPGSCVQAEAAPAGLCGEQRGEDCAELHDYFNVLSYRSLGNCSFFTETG
Assay: cell-based or functional assay
// reported Average EC50, IL-2 production, human TIGIT Jurkat/anti-CD3 HT-1080 co-culture assay per item
Value expressed in nM; do not type the unit.

The examples below pair each entry with its known result.
[Q] Which Average EC50, IL-2 production, human TIGIT Jurkat/anti-CD3 HT-1080 co-culture assay value is on record for MAB5-IgG4 (antibody, V domains shown) VH: QLQLQESGPGLVKPSETLSLTCTVSGGSISSTSHYWGWIRQPPGKGLEWIGSIYYSGSTFYNPSLKGRVTISVDTSKNQFSLKLSSVTAADTAVYYCARDANYYGSAWAFDPWGQGTLVTVSS VL: EIVLTQSPATLSLSPGERATLSCRASQSVSSYLAWYQQKPGQAPRLLIYDASNRATGIPARFSGSGSGTDFTLTISSLEPEDFAVYYCQQHFNLPTFGGGTKVEIKR ?
[A] 0.34

[Q] Same question for MAB2-IgG4 (antibody, V domains shown) VH: QLQLQESGPGLVKPSETLSLTCTVSGGSISSSKYYWGWIRQPPGKGLEWIGSIYYSGSTFYNPSLKSRVTISVDTSKNQFSLKLSSVTAADTAVYYCARDANYYGSAWAFDPWGQGTLVTVSS VL: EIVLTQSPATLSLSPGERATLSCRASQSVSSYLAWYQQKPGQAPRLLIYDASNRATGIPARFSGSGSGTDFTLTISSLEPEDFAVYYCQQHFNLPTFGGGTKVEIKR please.
[A] 0.31

[Q] Same question for MAB16-IgG4 (antibody, V domains shown) VH: QVQLVQSGAEVKKPGASVKVSCKASGYTFREYYMHWVRQAPGQGLEWMGIINPSIGLTSYARKFQGRVTMTRDTSTSTVYMELSSLRSEDTAVYYCARGGRTTWIGALDIWGQGTMVTVSS VL: EIVMTQSPATLSVSPGERATLSCRASQSVSSNLAWYQQKPGQAPRLLIYGASTRATGIPARFSGSGSGTEFTLTISSLQSEDFAVYYCQQYVVWPPLTFGGGTKVEIKR please.
[A] 1.11

[Q] Same question for MAB14-IgG4 (antibody, V domains shown) VH: QVQLVQSGAEVKKPGASVKVSCKASGYTFPAYYMHWVRQAPGQGLEWMGIINPSLGLTSYAQKFQGRVTMTRDTSTSTVYMELSSLRSEDTAVYYCARGGRTTWIGAFDIWGQGTMVTVSS VL: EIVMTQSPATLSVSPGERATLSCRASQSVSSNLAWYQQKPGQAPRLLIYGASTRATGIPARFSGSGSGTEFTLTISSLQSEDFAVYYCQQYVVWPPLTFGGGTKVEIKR please.
[A] 0.71

Further cases:
[Q] Which Average EC50, IL-2 production, human TIGIT Jurkat/anti-CD3 HT-1080 co-culture assay value is on record for MAB21-IgG4 (antibody, V domains shown) VH: QVQLVQSGAEVKKPGASVKVSCKASGYTFTSHYMGWVRQAPGQGLEWMGIINPSMGATSYTQKFRGRVTMTRDTSTSTVYMELSSLRSEDTAVYYCARLHVSGSYYPAYLDYWGQGTMVTVSS VL: EIVMTQSPATLSVSPGERATLSCRASQSVSSNLAWYQQKPGQAPRHLIYGASTRATGIPARFSGSGSGTEFTLTISSLQSEDFAVYYCQQYIVFPWTFGGGTKVEIKR ?
[A] 0.61
